Here the recorded inhibition is given for each entry.
Biological target: Mu-type opioid receptor (Cavia porcellus) (UniProt P97266)
Sequence (P97266 whole entry): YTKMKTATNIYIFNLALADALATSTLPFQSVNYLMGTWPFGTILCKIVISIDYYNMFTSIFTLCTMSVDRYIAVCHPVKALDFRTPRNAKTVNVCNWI
Assay: Antagonist activity at mu opioid receptor in guinea pig longitudinal muscle myenteric plexus assessed as inhibition of DAMGO-induced twitch tension at 1 uM after 10 mins
Type: functional

{"smiles.notation": "CCCCCCN1C[C@@H]2[C@H](C1)[C@@]2(C)c1cccc(NS(=O)(=O)CCOC)c1", "inhibition": "> 10%"}
{"smiles.notation": "C[C@]1(c2cccc(NS(C)(=O)=O)c2)[C@@H]2CN(CCCc3ccccc3)C[C@@H]21", "inhibition": "< 10%"}
{"smiles.notation": "CCCCCCN1C[C@@H]2[C@H](C1)[C@@]2(C)c1cccc(NS(C)(=O)=O)c1", "inhibition": "< 10%"}
{"smiles.notation": "CCCCCCN1C[C@@H]2[C@H](C1)[C@@]2(C)c1cccc(NS(=O)(=O)C(C)C)c1", "inhibition": "18%"}
{"smiles.notation": "CC[C@]1(c2cccc(NS(C)(=O)=O)c2)[C@@H]2CN(CCCc3ccccc3)C[C@@H]21", "inhibition": "< 10%"}
{"smiles.notation": "CCCCCCN1C[C@@H]2[C@H](C1)[C@]2(c1cccc(NS(C)(=O)=O)c1)C(C)C", "inhibition": "32%"}
{"smiles.notation": "CCCCCCN1C[C@@H]2[C@H](C1)[C@@]2(CCC)c1cccc(NS(C)(=O)=O)c1", "inhibition": "< 10%"}
{"smiles.notation": "C[C@]1(c2cccc(NS(C)(=O)=O)c2)[C@@H]2CN(CC3Cc4ccccc4C3)C[C@@H]21", "inhibition": "< 10%"}

---

Target: Mu-type opioid receptor (Homo sapiens)
Sequence (P35372 whole entry): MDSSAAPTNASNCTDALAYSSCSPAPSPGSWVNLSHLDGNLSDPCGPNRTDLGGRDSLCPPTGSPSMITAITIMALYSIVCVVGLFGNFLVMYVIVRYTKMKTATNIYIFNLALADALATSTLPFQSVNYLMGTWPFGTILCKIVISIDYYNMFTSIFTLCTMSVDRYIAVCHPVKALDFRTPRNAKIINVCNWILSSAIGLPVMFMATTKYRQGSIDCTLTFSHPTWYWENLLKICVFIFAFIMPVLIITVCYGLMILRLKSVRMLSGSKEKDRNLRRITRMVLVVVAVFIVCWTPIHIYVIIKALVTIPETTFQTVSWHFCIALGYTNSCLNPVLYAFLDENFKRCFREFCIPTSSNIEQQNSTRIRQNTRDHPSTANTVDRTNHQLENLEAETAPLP
Assay: Displacement of [3H]DAMGO from human mu opioid receptor

{"compound": "C[C@]1(c2cccc(NS(C)(=O)=O)c2)[C@@H]2CN(CC3Cc4ccccc4C3)C[C@@H]21", "assay.system": "Mu-type opioid receptor (Homo sapiens)", "Ki (nM)": 0.81}
{"compound": "CC[C@]1(c2cccc(NS(C)(=O)=O)c2)[C@@H]2CN(CC(O)Cc3ccccc3)C[C@@H]21 (stereo partly drawn)", "assay.system": "Mu-type opioid receptor (Homo sapiens)", "Ki (nM)": 6.6}
{"compound": "CC[C@]1(c2cccc(NS(C)(=O)=O)c2)[C@@H]2CN(CC3Cc4ccccc4C3O)C[C@@H]21 (stereo partly drawn)", "assay.system": "Mu-type opioid receptor (Homo sapiens)", "Ki (nM)": 0.1}

---

Assay: Displacement of [3H]DPDPE from delta opioid receptor in dog brain after 90 mins by scintillation counting
Design: species or system Canis lupus familiaris
pKi: −log10 of the molar value.

{"compound": "CCCCCCN1C[C@@H]2[C@H](C1)[C@@]2(C)c1cccc(NS(=O)(=O)c2cccnc2)c1", "comparison.symbol": "<", "pKi": 5.00}
{"compound": "CCCCCCN1C[C@@H]2[C@H](C1)[C@@]2(C)c1cccc(NS(=O)(=O)C(C)C)c1", "comparison.symbol": "=", "pKi": 5.80}
{"compound": "CC[C@]1(c2cccc(NS(C)(=O)=O)c2)[C@@H]2CN(CC(O)Cc3ccccc3)C[C@@H]21 (stereo not given in full)", "comparison.symbol": "=", "pKi": 6.23}
{"compound": "CC[C@]1(c2cccc(NS(C)(=O)=O)c2)[C@@H]2CN(CC3Cc4ccccc4C3O)C[C@@H]21 (stereo not given in full)", "comparison.symbol": "=", "pKi": 7.72}
{"compound": "CCCCCCN1C[C@@H]2[C@H](C1)[C@]2(c1cccc(NS(C)(=O)=O)c1)C(C)C", "comparison.symbol": "=", "pKi": 6.51}
{"compound": "CCCCCCN1C[C@@H]2[C@H](C1)[C@@]2(C)c1cccc(NS(=O)(=O)CCOC)c1", "comparison.symbol": "=", "pKi": 6.33}
{"compound": "CC[C@]1(c2cccc(NS(C)(=O)=O)c2)[C@@H]2CN(CCCc3ccccc3)C[C@@H]21", "comparison.symbol": "=", "pKi": 7.10}
{"compound": "CCCCCCN1C[C@@H]2[C@H](C1)[C@@]2(CCC)c1cccc(NS(C)(=O)=O)c1", "comparison.symbol": "=", "pKi": 7.18}
{"compound": "C[C@]1(c2cccc(NS(C)(=O)=O)c2)[C@@H]2CN(CC3Cc4ccccc4C3)C[C@@H]21", "comparison.symbol": "=", "pKi": 6.42}
{"compound": "C[C@]1(c2cccc(NS(C)(=O)=O)c2)[C@@H]2CN(CCCc3ccccc3)C[C@@H]21", "comparison.symbol": "=", "pKi": 6.74}
{"compound": "CCCCCCN1C[C@@H]2[C@H](C1)[C@@]2(CC)c1cccc(NS(C)(=O)=O)c1", "comparison.symbol": "<", "pKi": 5.00}
{"compound": "CC[C@]1(c2cccc(NS(C)(=O)=O)c2)[C@@H]2CN(CC3Cc4ccccc4C3)C[C@@H]21", "comparison.symbol": "=", "pKi": 7.54}
{"compound": "CCS(=O)(=O)Nc1cccc([C@@]2(C)[C@@H]3CN(CCCc4ccccc4)C[C@@H]32)c1", "comparison.symbol": "=", "pKi": 5.54}
{"compound": "CCCCCCN1C[C@@H]2[C@H](C1)[C@@]2(C)c1cccc(NS(C)(=O)=O)c1", "comparison.symbol": "=", "pKi": 6.06}
{"compound": "CCCCCCN1C[C@@H]2[C@H](C1)[C@@]2(C)c1cccc(NS(=O)(=O)CCC)c1", "comparison.symbol": "<", "pKi": 5.00}
